Listed here: items and their measured pIC50.
Target: human TRPV3 (Homo sapiens)
Construct: expressed in transfected cells
Sequence (Q8NET8 whole entry): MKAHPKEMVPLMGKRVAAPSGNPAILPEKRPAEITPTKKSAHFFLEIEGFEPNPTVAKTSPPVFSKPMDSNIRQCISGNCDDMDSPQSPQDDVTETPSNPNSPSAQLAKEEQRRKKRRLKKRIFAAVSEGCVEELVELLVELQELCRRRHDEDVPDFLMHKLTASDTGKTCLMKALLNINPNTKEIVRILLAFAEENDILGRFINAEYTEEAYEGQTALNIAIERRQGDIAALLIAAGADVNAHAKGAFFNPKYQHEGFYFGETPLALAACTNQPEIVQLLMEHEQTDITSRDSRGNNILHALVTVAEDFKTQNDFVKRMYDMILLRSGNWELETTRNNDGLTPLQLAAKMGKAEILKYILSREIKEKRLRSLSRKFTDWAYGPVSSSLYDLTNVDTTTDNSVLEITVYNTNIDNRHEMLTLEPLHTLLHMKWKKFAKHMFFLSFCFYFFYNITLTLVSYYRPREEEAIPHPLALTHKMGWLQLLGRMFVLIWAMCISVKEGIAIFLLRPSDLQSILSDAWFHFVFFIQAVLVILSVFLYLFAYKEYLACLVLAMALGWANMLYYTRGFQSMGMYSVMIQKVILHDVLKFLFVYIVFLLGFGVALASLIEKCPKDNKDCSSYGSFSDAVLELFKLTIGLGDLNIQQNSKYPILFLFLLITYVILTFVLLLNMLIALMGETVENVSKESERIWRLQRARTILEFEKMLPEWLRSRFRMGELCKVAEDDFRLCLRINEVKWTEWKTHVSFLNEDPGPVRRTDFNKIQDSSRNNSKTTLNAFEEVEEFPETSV
Assay: In vitro antagonism of recombinant human TRPV3 activation (FLIPR Tetra calcium assay, 2-APB as agonist)
Assay type: cell-based
Conditions: HEK293 cells stably expressing human TRPV3; 2-APB 80 μM; range class; read-out: IC50 (reported range)
Procedure: Test compounds were evaluated for ability to antagonize the activation of recombinant human TRPV3 using FLIPR® Tetra cellular screening. […] A double-addition protocol was used. […] Each test compound evaluated was first dissolved in DMSO to prepare a 10 mM stock solution. […] Changes in fluorescence were measured over time using the FLIPR® instrument. The intensity of the fluorescence was captured and digitally transferred to an interfaced computer. […]
pIC50: −log10 of the molar value.
endpoint name: pIC50

1. OC(CC1(c2ccccc2)CCC1)c1ccccn1 (centres unmarked)
5.30 to 5.96
2. NC1CCCC1C(O)C1(c2cccc(OC(F)(F)F)c2)CCC1 (centres unmarked)
5.30 to 5.96
3. OC(c1ccccn1)C1(C2CCCc3ccccc32)CCC1 (centres unmarked)
5.30 to 5.96
4. OC(c1ccccn1)C1(c2ccc(F)c(F)c2)CCCO1 (centres unmarked) [Example 109]
4.70 to 5.29
5. CC1(O)CC(c2ccc(C(F)(F)F)cc2)([C@H](O)c2ccccn2)C1 (stereo in doubt)
4.70 to 5.29
6. OC1CC(c2cc(C(F)(F)F)ccn2)(C(O)c2ccccn2)C1 (centres unmarked) [Example 283]
6.00 to 6.30
7. N[C@H]1CCC[C@@H]1[C@H](O)C1(c2ccc(OC(F)(F)F)cc2)CCC1
5.30 to 5.96
8. OC1CC(c2ccc(C(F)(F)F)cc2)([C@H](O)c2ccccn2)C1 (some centres unmarked)
4.70 to 5.29
9. OC1CC(c2ccnc(C(F)(F)F)c2)(C(O)c2ccccn2)C1 (centres unmarked) [Example 306]
6.30 to 7.30
10. OC(c1ccccn1)C1(c2ccccc2F)CCCO1 (centres unmarked)
5.30 to 5.96
11. OC(c1ncccn1)C1(c2cccc(F)c2)CCC1 (centres unmarked)
4.70 to 5.29
12. OC(c1ccccn1)C1(c2cc(C(F)(F)F)cc(C(F)(F)F)c2)CCC1 (centres unmarked)
6.00 to 6.30
13. O=C1CC(c2cc(C(F)(F)F)ccn2)([C@@H](O)c2ccccn2)C1
4.70 to 5.29
14. OC(c1ncccn1)C1(c2cccc(OC(F)(F)F)c2)CCC1 (centres unmarked)
6.00 to 6.30

====

assay: In vitro rat microsomal stability assay; type: in vitro ADME, rat (Sprague-Dawley); conditions: Sprague-Dawley, rat, 0.5 h, 0.5 μM, pH 7.4
Note to self: use T only for RAT MICROSOMAL STABILITY (% REMAINING AFTER 30 MINUTES) readings below 30%; a reading exactly at 30% still gets F.

1) OC(C1CCCc2cccnc21)C1(c2cccc(C(F)(F)F)c2)CCC1 (single isomer, unassigned) [Example 180]
T
2) CC(c1ccc(Cl)cc1)C1(C(O)c2ccccn2)CCC1 (stereo not shown)
T
3) OC1CC(c2cncc(C(F)(F)F)c2)(C(O)c2ccccn2)C1 (stereo not shown) [Example 303]
F
4) O=C1CC(c2cccc(C(F)(F)F)c2)([C@H](O)c2ccccn2)C1
F
5) OC(c1ccccn1)C1(C2CCc3ccccc32)CCC1 (stereo not shown)
T
6) OC(c1ccccn1)C1(c2cccc(OC(F)(F)F)c2)CC(F)(F)C1 (stereo not shown)
T
7) CC1(O)CC(c2ccc(OC(F)(F)F)cc2)(C(O)c2ccccn2)C1 (single isomer, unassigned) [Example 134]
F
8) OC(c1ccccn1)C1(c2cccc(Oc3ccccc3)c2)CCC1 (stereo not shown)
T
9) CC1(O)CC(c2ccnc(C(F)(F)F)c2)(C(O)c2ccccn2)C1 (stereo not shown)
F
10) OC(c1ccccn1)C1(c2ccc(C(F)(F)F)cc2)CC2(C1)OCCO2 (stereo not shown)
T
11) Cc1ccccc1C(C)C1(C(O)c2ccccn2)CCC1 (stereo not shown)
T
12) CC(C)(C)OC(=O)N1CCC(c2ccc(OC(F)(F)F)cc2)(C(O)c2ccccn2)CC1 (stereo not shown)
T
13) OC(c1ccccn1)C1(c2ccccc2F)CCCO1 (stereo not shown) [Example 102]
T
14) OC(c1ccccn1)C1(c2cccnc2)CCC1 (stereo not shown)
F
15) COc1ccnc(C(O)C2(c3ccc(Cl)c(Cl)c3)CCC2)c1 (stereo not shown)
T
16) OC1CC(c2cncc(C(F)(F)F)c2)(C(O)c2ccccn2)C1 (stereo not shown) [Example 304]
F
17) O[C@H](c1ccccn1)C1(c2ccc(OC(F)(F)F)cc2)CC(F)(F)C1
F
18) OC(c1ccccn1)C1(c2ccc(F)c(C(F)(F)F)c2)CC(F)(F)C1 (stereo not shown)
T
19) O[C@H](c1ccccn1)[C@]1(c2ccc(Cl)c(Cl)c2)CCO1
T
